- Tested On: Neurogenic locus notch homolog protein 2 (Homo sapiens)
- Test Name: Notch2 binders on small-molecule microarrays, primary screen, biochemical, small-molecule microarray, 635 nm fluorescence, stem cell growth factors (AID 1073)
- Experimental Context: Notch2 binding, higher = more signal
Measured Metric: composite z-score

[[record]]
molecule = "[N-]=[N+]=NCc1ccccc1C[C@@]1(C(=O)NCCN2CCOCC2)N=C(c2ccc(OCCCO)cc2)O[C@@H]1c1ccccc1"
tested_on = "Neurogenic locus notch homolog protein 2 (Homo sapiens)"
value_reported = 0.266

[[record]]
molecule = "COC(=O)C(CC#Cc1ccc2c(c1)[C@]1(C(=O)N2)[C@H](c2ccc(OCCO)cc2)N2[C@H](c3ccccc3)[C@H](c3ccccc3)OC(=O)[C@H]2[C@@H]1C(N)=O)C(=O)OC"
tested_on = "Neurogenic locus notch homolog protein 2 (Homo sapiens)"
value_reported = 0.0619

[[record]]
molecule = "O=C1C2C=CC(C(O)C3CCCCC3)N(Nc3ccccc3F)C2C(=O)N1c1ccccc1 (configuration not stated)"
tested_on = "Neurogenic locus notch homolog protein 2 (Homo sapiens)"
value_reported = 1.66

[[record]]
molecule = "COCCOC(=O)N1C(=O)[C@@]2(c3cc(C#CCNC(N)=O)ccc31)[C@H](c1ccccc1OCCO)N1[C@H](c3ccccc3)[C@H](c3ccccc3)OC(=O)[C@H]1[C@@H]2C(=O)N1CCCCCCC1"
tested_on = "Neurogenic locus notch homolog protein 2 (Homo sapiens)"
value_reported = 0.725

[[record]]
molecule = "CC(C)(C)OC(=O)N1[C@@H](C=C(Br)Br)COC1(C)C"
tested_on = "Neurogenic locus notch homolog protein 2 (Homo sapiens)"
value_reported = 0.519

[[record]]
molecule = "O=C1NC(=O)C2C1C=CC(C(O)C(O)CO)N2Nc1ccccn1 (configuration not stated)"
tested_on = "Neurogenic locus notch homolog protein 2 (Homo sapiens)"
value_reported = 0.864

[[record]]
molecule = "COc1ccc(CCNC(=O)[C@@]2(c3ccc([N+](=O)[O-])cc3)CC(=O)N(C3CCCCC3)[C@@H]2c2ccc(CO)cc2I)cc1"
tested_on = "Neurogenic locus notch homolog protein 2 (Homo sapiens)"
value_reported = 0.964

